system: MCF7-DOX; test: Anti MDR activity was expressed as MDR ratio or MDR fold reversal in doxorubicin resistant human breast carcinoma tumor cell line MCF-7/DOX; type: functional
Label 1 when MDR ratio is at or above 1; anything below gets -1.

Solved cases below.
# compound, assignedLabel
records = [
    ("CN(C)CCCN1c2cc(Cl)ccc2Sc2cc(O)c(O)cc21", -1),
    ("CN(C)CCCN1c2ccccc2Sc2cc(Cl)ccc21", 1),
    ("CCN(CC)CCC=C1c2ccccc2Sc2ccc(Cl)cc21", 1),
    ("CN(C)CCCN1c2ccccc2Sc2cccc(Cl)c21", 1),
]

Now consider the entry below.
Identify whether the reported MDR ratio of the following compound is 1 or greater: CN(C)CCCN1c2ccccc2Sc2ccccc21 [PROMAZINE]
1

###

test system: MCF7-DOX; assay: Anti MDR activity was expressed as MDR ratio or MDR fold reversal in doxorubicin resistant human breast carcinoma tumor cell line MCF-7/DOX; assay type: functional
Assign MDR ratio to each entry below.

# molecule, MDR ratio
records = [
    ("CN(C)CCN1c2ccccc2Sc2ccc(Cl)cc21", 1.5),
    ("OCCN1CCN(CCCC2c3ccccc3Sc3ccc(Cl)cc32)CC1 (stereo not given)", 9.7),
    ("OCCN1CCN(CC/C=C2/c3ccccc3Sc3ccc(Cl)cc32)CC1 (stereo in doubt; 35) [ZUCLOPENTHIXOL]", 15),
    ("CN(C)CCCCN1c2ccccc2Sc2ccc(Cl)cc21", 2),
    ("CN(C)CCCN1c2cc(O)ccc2Sc2cc(O)c(Cl)cc21", 0.9),
    ("CN(C)CC=C1c2ccccc2Sc2ccc(Cl)cc21", 1.3),
]

Please state, for each entry, its recorded MDR ratio.
1. CN(C)CC/C=C1/c2ccccc2Sc2ccc(C(F)(F)F)cc21
2. OCCN1CCN(C/C=C2/c3ccccc3Sc3ccc(Cl)cc32)CC1

1.8
1.6

Please state, for each entry, its recorded MDR ratio.
1. Clc1ccc2c(c1)C(=CCCN1CCCCC1)c1ccccc1S2
2. Clc1ccc2c(c1)/C(=C\CCN1CCCCC1)c1ccccc1S2

15
6.7

###

Assign MDR ratio to each entry below.
system: MCF7-DOX; experiment: Anti MDR activity was expressed as MDR ratio or MDR fold reversal in doxorubicin resistant human breast carcinoma tumor cell line MCF-7/DOX; assay type: functional
Answers are plain numbers.

# molecule, tgt, quantitativeResult
records = [
    ("CN(C)CCCN1c2ccccc2Sc2ccc(Cl)cc21 [CHLORPROMAZINE]", "MCF7-DOX", 1.6),
]

Please state, for each entry, its recorded MDR ratio.
1. CN(C)CCC=C1c2ccccc2Sc2ccc(Cl)cc21
2. CSc1ccc2c(c1)N(CCCN(C)C)c1ccccc1S2
3. OCCN1CCN(CCCN2c3ccccc3Sc3ccc(C(F)(F)F)cc32)CC1 [FLUPHENAZINE]

1: 7; 2: 1.5; 3: 2.7

###

Assign MDR ratio to each entry below.
system: MCF7-DOX; test: Anti MDR activity was expressed as MDR ratio or MDR fold reversal in doxorubicin resistant human breast carcinoma tumor cell line MCF-7/DOX; format: functional
Answers are plain numbers.

# example entries with known answers
# compound, quantitativeResult
records = [
    ("CN(C)CCCN1c2ccccc2Sc2c(Cl)cccc21", 1.4),
    ("OCCN1CCN(CC/C=C2/c3ccccc3Sc3ccc(C(F)(F)F)cc32)CC1 [Z-FLUPENTIXOL]", 15.2),
    ("CN1CCN(CCCN2c3ccccc3Sc3ccc(C(F)(F)F)cc32)CC1 [TRIFLUOPERAZINE]", 3.4),
]

Please state, for each entry, its recorded MDR ratio.
1. CC(CN1c2ccccc2Sc2ccccc21)N(C)C (stereo not given) [PROMETHAZINE]
2. CN(C)CCC=C1c2ccccc2Sc2ccc(C(F)(F)F)cc21

[1.9, 2.8]
